- TEST_SUMMARY: Cytotoxicity against MDCK cells assessed as change in cell morphology measured after 72 hrs by microscopic analysis
- Format: cell-based, Canis lupus familiaris
- REPORTED_CONDITIONS: dog
MEASURE_NAME: MCC at 72 h

CC(C)(C)OC(=O)N[C@@H](CC(N)=O)C(=O)N(Cc1ccccc1)C1(C(=O)NCc2ccccc2)CCN(Cc2ccccc2)CC1 = > 100 µM
COC(=O)C[C@H](NC(=O)OC(C)(C)C)C(=O)N(Cc1ccccc1)C1(C(=O)NCc2ccccc2)CCN(Cc2ccccc2)CC1 = > 100 µM

Continue with the molecule presented below.
Query :: State the recorded MCC at 72 h for this entry: COC(=O)C[C@H](NC(=O)OC(C)(C)C)C(=O)N(Cc1ccc(C)cc1)C1(C(=O)NCc2ccccc2)CCN(Cc2ccccc2)CC1
Result :: > 100 µM

* * *

Parameter: selectivity ratio. Scope: all listed entries.
- TEST_SUMMARY: Selectivity index, ratio of CC50 for MDCK cells to EC50 for antiviral activity against Influenza A virus (A/Puerto Rico/8/1934(H1N1)) infected in MDCK cells
- Format: toxicity, cell-based
- REPORTED_CONDITIONS: dog, read-out: Ratio CC50/EC50

CC(C)(C)OC(=O)N[C@@H](CC(N)=O)C(=O)N(Cc1ccccc1)C1(C(=O)NCc2ccccc2)CCN(Cc2ccccc2)CC1 = ≤ 10
COC(=O)CC[C@H](NC(=O)OC(C)(C)C)C(=O)N(Cc1ccc(F)cc1)C1(C(=O)NCc2ccccc2)CCN(Cc2ccccc2)CC1 = ≤ 10

Continue with the compound presented below.
Query :: State the recorded selectivity ratio for this entry: COC(=O)C[C@H](NC(=O)OC(C)(C)C)C(=O)N(Cc1ccccc1)C1(C(=O)NCc2ccccc2)CCN(Cc2ccccc2)CC1
Result :: ≤ 10
